System under test: recombinant human MetAP2 (Homo sapiens, UniProt P50579)
Construct: Flag; made in house
Sequence (P50579 whole entry): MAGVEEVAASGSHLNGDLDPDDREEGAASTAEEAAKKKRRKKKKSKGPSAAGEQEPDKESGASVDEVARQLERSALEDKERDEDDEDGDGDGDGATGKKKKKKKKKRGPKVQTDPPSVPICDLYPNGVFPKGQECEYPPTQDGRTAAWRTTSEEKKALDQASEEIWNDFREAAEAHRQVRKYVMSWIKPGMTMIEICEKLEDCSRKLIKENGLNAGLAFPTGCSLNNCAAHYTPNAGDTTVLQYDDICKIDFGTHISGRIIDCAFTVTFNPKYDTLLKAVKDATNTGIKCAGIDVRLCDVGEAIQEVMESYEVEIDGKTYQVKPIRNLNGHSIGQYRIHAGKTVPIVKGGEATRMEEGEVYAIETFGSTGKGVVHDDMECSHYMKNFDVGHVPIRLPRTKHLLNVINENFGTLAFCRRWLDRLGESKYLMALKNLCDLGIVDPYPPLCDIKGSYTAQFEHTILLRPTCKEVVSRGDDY
Method description: Inhibition of recombinant human MetAP2 activity (MAS peptide / amino acid oxidase / Amplex assay)
Format: biochemical
Run conditions: Flag tagged human recombinant MetAP2, 25 minutes at 25° C.; read-out: MetAP2 IC50
Counter-ions that a name gives are not always drawn.
Some compounds, each annotated with its measured IC50.

Compound	IC50
CO[C@@H]1[C@H](OC(=O)N2CC3(CN(C)C3)C2)CC[C@]2(CO2)[C@H]1[C@@]1(C)O[C@@H]1CC=C(C)C [Example 12]	< 0.05 µM
CO[C@@H]1[C@H](OC(=O)N2CC3(CCN(CC(F)F)CC3)C2)CC[C@]2(CO2)[C@H]1[C@@]1(C)O[C@@H]1CC=C(C)C [Example 9, formate]	0.05 to 0.5 µM
CO[C@@H]1[C@H](OC(=O)N2CC3C(C2)C3(F)F)CC[C@]2(CO2)[C@H]1[C@@]1(C)O[C@@H]1CC=C(C)C (stereo partly shown) [Example 22]	< 0.05 µM
CO[C@@H]1[C@H](OC(=O)N2CCC3(CCOCC3)CC2)CC[C@]2(CO2)[C@H]1[C@@]1(C)O[C@@H]1CC=C(C)C [Example 1]	0.05 to 0.5 µM
CO[C@@H]1[C@H](OC(=O)N2CC3(COC3)C2)CC[C@]2(CO2)[C@H]1[C@@]1(C)O[C@@H]1CC=C(C)C [Example 2]	< 0.05 µM
CO[C@@H]1[C@H](OC(=O)N2CCC3(CCOCC3)C2)CC[C@]2(CO2)[C@H]1[C@@]1(C)O[C@@H]1CC=C(C)C [Example 27]	0.05 to 0.5 µM
CO[C@@H]1[C@H](OC(=O)N2C[C@@H]3[C@H](C2)[C@H]3C(=O)N(C)C)CC[C@]2(CO2)[C@H]1[C@@]1(C)O[C@@H]1CC=C(C)C [Example 33]	0.05 to 0.5 µM
